Molecular target: DmelOrco (N-myc DmelOrco) (Drosophila melanogaster, UniProt Q9VNB5, D466E)
Construct: homomeric channel; ~50 kDa band
Experiment: Ca2+ influx (Fluo-4 fluorescence)
parameter: EC50 (µM)
Express the result in µM but write the number alone.

Prompt: Give DmelOrco (N-myc DmelOrco) (Drosophila melanogaster, UniProt Q9VNB5, D466E) EC50 for CCc1ccc(NC(=O)CSc2nnc(-c3cccnc3)n2CC)cc1 [VUAA1]
Completion: 21.4

---

Target: DmelOrco/DmelOR22a complex (Drosophila melanogaster, UniProt P81909)
Construct: heteromeric channel; Or22a in pCI transiently transfected into Flp-In 293 T-REX cells stably expressing N-myc DmelOrco; stoichiometry unknown; with Odorant receptor coreceptor
Sequence (P81909 whole entry): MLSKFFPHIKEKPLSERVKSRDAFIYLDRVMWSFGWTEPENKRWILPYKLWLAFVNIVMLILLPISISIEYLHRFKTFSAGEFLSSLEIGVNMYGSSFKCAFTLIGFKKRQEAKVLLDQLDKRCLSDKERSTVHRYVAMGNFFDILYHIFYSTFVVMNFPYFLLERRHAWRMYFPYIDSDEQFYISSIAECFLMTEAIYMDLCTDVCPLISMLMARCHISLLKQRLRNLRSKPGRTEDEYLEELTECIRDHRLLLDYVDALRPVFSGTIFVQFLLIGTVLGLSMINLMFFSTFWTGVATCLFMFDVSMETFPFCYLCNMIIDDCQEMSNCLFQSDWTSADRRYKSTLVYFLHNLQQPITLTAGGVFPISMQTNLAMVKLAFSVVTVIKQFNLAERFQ
Sequence (Q9VNB5 whole entry partner): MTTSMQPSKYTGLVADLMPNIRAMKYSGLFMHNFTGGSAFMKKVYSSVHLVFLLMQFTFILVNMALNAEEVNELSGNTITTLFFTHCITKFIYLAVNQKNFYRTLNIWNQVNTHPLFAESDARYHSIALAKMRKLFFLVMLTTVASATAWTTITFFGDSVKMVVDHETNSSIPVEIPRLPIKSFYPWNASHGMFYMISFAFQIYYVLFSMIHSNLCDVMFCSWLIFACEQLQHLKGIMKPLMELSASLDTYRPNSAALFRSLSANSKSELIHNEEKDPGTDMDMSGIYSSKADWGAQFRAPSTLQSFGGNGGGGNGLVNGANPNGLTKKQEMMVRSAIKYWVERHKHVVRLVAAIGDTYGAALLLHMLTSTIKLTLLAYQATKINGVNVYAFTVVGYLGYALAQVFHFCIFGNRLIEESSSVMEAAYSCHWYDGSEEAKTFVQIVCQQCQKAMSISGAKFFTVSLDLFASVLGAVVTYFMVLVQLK
Assay: Ca2+ influx (Fluo-4 AM fluorescence)
parameter: EC50

Prompt: # query: EC50 of entry CCCCCC(=O)OC [methyl hexanoate]
Completion: 417 nM

---

Target: DmelOrco (N-myc DmelOrco) (Drosophila melanogaster, UniProt Q9VNB5, D357N)
Construct: homomeric channel; ~50 kDa band
Test: Ca2+ influx (Fluo-4 fluorescence)
parameter: EC50 (µM)
Express the result in µM but write the number alone.

Prompt: # query: EC50 of entry `CCc1ccc(NC(=O)CSc2nnc(-c3cccnc3)n2CC)cc1`
Completion: 38
